# ASSAYED SYSTEM: PTHR1 (Rattus norvegicus, UniProt P25961)
# Sequence (P25961 27-591): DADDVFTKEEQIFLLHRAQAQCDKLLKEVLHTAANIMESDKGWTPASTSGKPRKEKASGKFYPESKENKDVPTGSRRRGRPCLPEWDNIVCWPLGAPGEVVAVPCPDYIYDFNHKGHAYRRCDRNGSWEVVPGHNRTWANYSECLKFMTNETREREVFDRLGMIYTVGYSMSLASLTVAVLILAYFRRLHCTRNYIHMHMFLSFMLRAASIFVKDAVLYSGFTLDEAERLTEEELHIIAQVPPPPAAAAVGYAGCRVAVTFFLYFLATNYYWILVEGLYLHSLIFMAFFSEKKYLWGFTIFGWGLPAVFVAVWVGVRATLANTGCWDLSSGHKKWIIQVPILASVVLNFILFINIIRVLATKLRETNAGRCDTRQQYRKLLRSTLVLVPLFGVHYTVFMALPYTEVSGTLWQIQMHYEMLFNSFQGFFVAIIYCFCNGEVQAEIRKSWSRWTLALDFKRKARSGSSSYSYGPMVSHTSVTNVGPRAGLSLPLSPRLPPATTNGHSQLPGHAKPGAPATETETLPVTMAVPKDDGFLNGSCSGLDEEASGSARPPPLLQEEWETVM
# METHOD NOTES: cAMP screening assay using DiscoveRX XS+ kit (PTH1-34 dose-response in UMR-106 cells)
# APPLIED CONDITIONS: compound 10 μM, PTH1-34 stimulated maximal response, 1−(Emax compound/Emax vehicle)
RESULT TYPE: Inhibition of Maximal Response (%)

TNAGRSDTRQQYRKAL [Compound 89] ... −20.40

a = LAYFRRLHSTRNYI [Compound 9]
b = TNAGRSDTRQQYRK [Compound 69]
Prompt: # query: argmin of Inhibition of Maximal Response over a and b State the label of the item chosen.
Response: b

P = YLHSLIFMAFFSEKKYLWGFT [Compound 35]
Q = LAYFRRLHSTR [Compound 4]
Prompt: # query: argmin of Inhibition of Maximal Response over P and Q State the label of the item chosen.
Response: Q
(Q: −74.20%, P: 24.50%)
